pIC50: −log10 of the molar value.
The listing below reports pIC50 for molecules tested on cMET (Homo sapiens).
Sequence (P08581 25-1390): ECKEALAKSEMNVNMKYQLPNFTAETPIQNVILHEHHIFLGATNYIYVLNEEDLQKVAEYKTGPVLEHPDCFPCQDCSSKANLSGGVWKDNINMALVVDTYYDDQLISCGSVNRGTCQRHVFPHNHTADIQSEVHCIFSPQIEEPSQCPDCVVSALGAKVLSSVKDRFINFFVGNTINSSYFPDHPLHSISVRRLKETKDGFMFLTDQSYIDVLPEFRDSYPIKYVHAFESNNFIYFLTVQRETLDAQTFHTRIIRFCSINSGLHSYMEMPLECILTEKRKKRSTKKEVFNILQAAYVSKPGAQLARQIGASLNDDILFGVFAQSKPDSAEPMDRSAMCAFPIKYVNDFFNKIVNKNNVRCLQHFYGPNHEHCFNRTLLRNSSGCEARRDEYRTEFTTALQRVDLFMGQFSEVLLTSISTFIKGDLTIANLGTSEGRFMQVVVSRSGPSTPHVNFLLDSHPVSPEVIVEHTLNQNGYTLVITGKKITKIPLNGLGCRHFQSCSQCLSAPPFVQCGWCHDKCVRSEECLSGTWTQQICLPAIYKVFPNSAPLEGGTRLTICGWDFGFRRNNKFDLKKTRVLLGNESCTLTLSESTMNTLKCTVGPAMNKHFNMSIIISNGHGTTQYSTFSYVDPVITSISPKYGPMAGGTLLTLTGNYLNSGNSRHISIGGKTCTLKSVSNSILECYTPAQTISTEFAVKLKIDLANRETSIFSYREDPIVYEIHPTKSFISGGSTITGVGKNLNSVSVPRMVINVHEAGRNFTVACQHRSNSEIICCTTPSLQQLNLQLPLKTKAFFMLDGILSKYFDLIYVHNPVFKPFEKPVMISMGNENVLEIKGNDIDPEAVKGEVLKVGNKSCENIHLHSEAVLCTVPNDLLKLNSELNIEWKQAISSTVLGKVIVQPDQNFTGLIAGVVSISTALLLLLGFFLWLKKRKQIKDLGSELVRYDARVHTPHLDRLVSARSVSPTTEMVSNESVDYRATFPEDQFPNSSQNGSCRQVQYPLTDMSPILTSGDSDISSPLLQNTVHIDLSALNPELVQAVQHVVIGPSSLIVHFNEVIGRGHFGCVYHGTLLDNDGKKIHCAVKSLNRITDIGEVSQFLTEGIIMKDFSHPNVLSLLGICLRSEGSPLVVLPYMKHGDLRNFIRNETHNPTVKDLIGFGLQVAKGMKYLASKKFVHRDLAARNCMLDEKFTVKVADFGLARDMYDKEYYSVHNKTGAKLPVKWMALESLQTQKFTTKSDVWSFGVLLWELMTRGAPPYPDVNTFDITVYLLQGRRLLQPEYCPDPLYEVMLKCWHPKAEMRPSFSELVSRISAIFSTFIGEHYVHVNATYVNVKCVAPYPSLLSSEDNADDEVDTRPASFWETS

>  <structure_smiles>
CN(c1ccc2ncc(-c3ccc4cn[nH]c4c3)n2n1)C1CCOCC1

>  <pIC50>
< 5.00

$$$$
>  <structure_smiles>
c1cc2cn[nH]c2cc1-c1cnc2ccc(NC3CCOCC3)nn12

>  <pIC50>
5.22

$$$$
>  <structure_smiles>
CCN(c1ccc2ncc(-c3ccc4cn[nH]c4c3)n2n1)C1CCOCC1

>  <pIC50>
< 4.52

$$$$

* * *

Target: HuR (Homo sapiens, UniProt Q15717)
Construct: expressed in transfected cells; host or cells: U251 glioma cells, doxycycline-inducible constructs
Sequence (Q15717 whole entry): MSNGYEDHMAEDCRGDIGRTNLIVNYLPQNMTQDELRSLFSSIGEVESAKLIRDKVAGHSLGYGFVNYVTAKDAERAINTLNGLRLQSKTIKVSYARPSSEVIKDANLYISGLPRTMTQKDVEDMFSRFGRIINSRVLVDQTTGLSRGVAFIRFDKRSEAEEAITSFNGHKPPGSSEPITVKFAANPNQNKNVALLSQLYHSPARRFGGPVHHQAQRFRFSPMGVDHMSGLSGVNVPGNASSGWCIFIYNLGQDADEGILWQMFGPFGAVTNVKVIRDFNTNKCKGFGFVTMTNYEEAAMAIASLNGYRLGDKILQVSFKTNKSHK
Assay: cell-based split firefly luciferase-HuR dimerization assay
Settings: U251 cells co-expressing HuR-Nluc and HuR-Cluc, 6 hours of treatment; read-out: HuR IC50
// reported IC50 for each item listed
parameter_measured: IC50 (µM)

>  <compound>
CN(c1ccc2ncc(-c3ccc4nccn4c3)n2n1)C1CCOCC1

>  <target_under_test>
HuR (Homo sapiens, UniProt Q15717)

>  <parameter_measured>
IC50

>  <readout_unit>
µM

>  <relation>
=

>  <measurement>
3

$$$$
>  <compound>
CN(c1ccc2ncc(-c3ccc4cn[nH]c4c3)n2n1)C1CCCCC1

>  <target_under_test>
HuR (Homo sapiens, UniProt Q15717)

>  <parameter_measured>
IC50

>  <readout_unit>
µM

>  <relation>
=

>  <measurement>
9

$$$$
>  <compound>
CCCN(C)c1ccc2ncc(-c3ccc4cnn(C)c4c3)n2n1

>  <target_under_test>
HuR (Homo sapiens, UniProt Q15717)

>  <parameter_measured>
IC50

>  <readout_unit>
µM

>  <relation>
=

>  <measurement>
2.2

$$$$
>  <compound>
Cn1ncc2ccc(-c3cnc4ccc(NC5CCOCC5)nn34)cc21

>  <target_under_test>
HuR (Homo sapiens, UniProt Q15717)

>  <parameter_measured>
IC50

>  <readout_unit>
µM

>  <relation>
=

>  <measurement>
1.2

$$$$
>  <compound>
CC1(C)CC(Nc2ccc3ncc(-c4ccc5[nH]ncc5c4)n3n2)CCO1 (stereo not drawn)

>  <target_under_test>
HuR (Homo sapiens, UniProt Q15717)

>  <parameter_measured>
IC50

>  <readout_unit>
µM

>  <relation>
=

>  <measurement>
1.1

$$$$
>  <compound>
CN(c1ccc2ncc(-c3cnc4[nH]ncc4c3)n2n1)C1CCOCC1

>  <target_under_test>
HuR (Homo sapiens, UniProt Q15717)

>  <parameter_measured>
IC50

>  <readout_unit>
µM

>  <relation>
=

>  <measurement>
1.2

$$$$
>  <compound>
CN(c1ccc2ncc(-c3ccc4cnn(C)c4c3)n2n1)C1CCOCC1

>  <target_under_test>
HuR (Homo sapiens, UniProt Q15717)

>  <parameter_measured>
IC50

>  <readout_unit>
µM

>  <relation>
=

>  <measurement>
3.4

$$$$
>  <compound>
O=C(C1CCCC1)N1CCN(C(=O)C2CC2c2ccc3c(c2)OCO3)CC1 (stereo not drawn)

>  <target_under_test>
HuR (Homo sapiens, UniProt Q15717)

>  <parameter_measured>
IC50

>  <readout_unit>
µM

>  <relation>
>

>  <measurement>
50

$$$$

* * *

Test: aqueous solubility at pH 7.4
Assay type: physicochemical
Conditions: aqueous medium at pH 7.4, pH 7.4, aqueous buffer; read-out: Sol @ pH 7.4
Class Condition met: solubility at least 3 µM. Class Condition not met: solubility below 3 µM.

>  <compound>
Cc1n[nH]c2cc(-c3cnc4ccc(N(C)C5CCOCC5)nn34)ccc12

>  <assigned_category>
Condition not met

$$$$
>  <compound>
FC(F)(F)CNc1ccc2ncc(-c3ccc4[nH]ncc4c3)n2n1

>  <assigned_category>
Condition not met

$$$$
>  <compound>
CCCN(c1ccc2ncc(-c3ccc4cn[nH]c4c3)n2n1)C1CCOCC1

>  <assigned_category>
Condition met

$$$$
>  <compound>
CN(c1ccc2ncc(-c3ccc4cc[nH]c4c3)n2n1)C1CCOCC1

>  <assigned_category>
Condition met

$$$$
>  <compound>
CC1(C)CC(Nc2ccc3ncc(-c4ccc5[nH]ncc5c4)n3n2)CCO1 (stereo not drawn)

>  <assigned_category>
Condition met

$$$$
>  <compound>
CCCNc1ccc2ncc(-c3ccc4[nH]ncc4c3)n2n1

>  <assigned_category>
Condition met

$$$$
>  <compound>
FC1(F)CCC(Nc2ccc3ncc(-c4ccc5[nH]ncc5c4)n3n2)CC1

>  <assigned_category>
Condition not met

$$$$
>  <compound>
CCCN(C)c1ccc2ncc(-c3ccc4[nH]nc(C(C)=O)c4c3)n2n1

>  <assigned_category>
Condition not met

$$$$
>  <compound>
CCCN(C)c1ccc2ncc(-c3ccc4cnn(C)c4c3)n2n1

>  <assigned_category>
Condition not met

$$$$
